- protocol_summary: Miscibility with solvents, visual evaluation at 5 wt %
- Format: physicochemical
- Set-up: key: ⊚: dissolves at room temperature; ◯: dissolves when heated for 5 minutes at 40° C.; Δ: dissolves under heating, but cooling precipitates crystals; X: does not dissolve
- experimental_context: complex added at 5 wt %
quantity: Miscibility, Acetone

* O=P(c1ccccc1)(c1ccccc1)c1ccccc1.O=P(c1ccccc1)(c1ccccc1)c1ccccc1.O=P(c1ccccc1)(c1ccccc1)c1ccccc1.O=P(c1ccccc1)(c1ccccc1)c1ccccc1.O=P(c1ccccc1)(c1ccccc1)c1ccccc1.O=P(c1ccccc1)(c1ccccc1)c1ccccc1.O=P(c1ccccc1)(c1ccccc1)c1ccccc1.O=P(c1ccccc1)(c1ccccc1)c1ccccc1.O=S(=O)([N-]S(=O)(=O)C(F)(F)F)C(F)(F)F.O=S(=O)([N-]S(=O)(=O)C(F)(F)F)C(F)(F)F.O=S(=O)([N-]S(=O)(=O)C(F)(F)F)C(F)(F)F.[Nd+3] [Nd(PMS)3(TPPO)8] | ⊚
